# SYSTEM_TESTED: T1, equine IL-31 protein (Equine_IL31) (equine)
# T1 construct: Recombinant equine IL-31
# T1 chain: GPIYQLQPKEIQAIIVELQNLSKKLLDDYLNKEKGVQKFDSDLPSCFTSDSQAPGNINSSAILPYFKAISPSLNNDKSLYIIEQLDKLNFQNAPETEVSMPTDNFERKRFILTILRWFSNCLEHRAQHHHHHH
# ASSAY_PROTOCOL: SPR (Biacore), IL-31 surface, single antibody concentration
MEASURED_PARAMETER: binding result

[
  {
    "BINDER": "ZIL11 (recombinant fully canine antibody) (antibody, V domains shown, also called CAN-ZIL11; copies: 2 + 2) VH: EVQLVESGGDLVKPAGSLRLSCVASGFTFRTYVMNWVRQAPGKGLQWVASINGGGSSPTYADAVRGRFTVSRDNAQNSLFLQMNSLRAEDTAVYFCVVSMVGPFDYWGQGTLVTVSS VL: SSVLTQPPSVSVSLGQTATISCSGESLSNYYAQWFQQKAGQAPVLVIYKDTERPSGIPDRFSGSSSGNTHTLTISGARAEDEADYYCESAVSSDTIVFGGGTHLTVL",
    "MEASURED_PARAMETER": "binding result",
    "RESULT": "no binding"
  },
  {
    "BINDER": "ZIL171 (recombinant fully canine antibody) (antibody, V domains shown, also called CAN-ZIL171) VH: EVQLVESGGDLVKPAGSLRLSCVASGFTFRTYVMNWVRQAPGKGLQWVASINGGGSSPTYADAVRGRFTVSRDNAQNSLFLQMNSLRAEDTAIYFCVVSMVGPFDYWGHGTLVTVSS VL: SSVLTQPPSVSVSLGQTATISCSGKSLSYYYAQWFQQKAGQAPVLVIYKDTERPSGIPDRFSGSSSGNTHTLTISGARAEDEADYYCESAVSSDTIVFGGGTHLTVLR",
    "MEASURED_PARAMETER": "binding result",
    "RESULT": "no binding"
  }
]
